Test: Selectivity index, ratio of IC50 for cytotoxicity against human HaCaT cells to IC50 for cytotoxicity against human SW480 cells
Type: toxicity, cell-based
Conditions: HaCaT cells versus SW480 cells, read-out: Ratio IC50
readout label: selectivity ratio
In your answer, state the number alone without any accompanying words.

Solved entries:
CC[C@@H](C(=O)[C@@H](C)[C@@H](O)[C@H](C)[C@@H]1O[C@@H]([C@@H](CC)C(=O)OCCCCCC[P+](c2ccc(OC)cc2)(c2ccc(OC)cc2)c2ccc(OC)cc2)CC[C@@H]1C)[C@H]1O[C@]2(C=C[C@@H](O)[C@]3(CC[C@@](C)([C@H]4CC[C@](O)(CC)[C@H](C)O4)O3)O2)[C@H](C)C[C@@H]1C.[Br-]    1.2
CCCC[P+](CCCC)(CCCC)CCCCCCOC(=O)[C@H](CC)[C@H]1CC[C@H](C)[C@H]([C@@H](C)[C@H](O)[C@H](C)C(=O)[C@H](CC)[C@H]2O[C@]3(C=C[C@@H](O)[C@]4(CC[C@@](C)([C@H]5CC[C@](O)(CC)[C@H](C)O5)O4)O3)[C@H](C)C[C@@H]2C)O1.[Br-]    1.2
CC[C@@H](C(=O)[C@@H](C)[C@@H](O)[C@H](C)[C@@H]1O[C@@H]([C@@H](CC)C(=O)OCCCCCC[P+](c2ccc(C)cc2)(c2ccc(C)cc2)c2ccc(C)cc2)CC[C@@H]1C)[C@H]1O[C@]2(C=C[C@@H](O)[C@]3(CC[C@@](C)([C@H]4CC[C@](O)(CC)[C@H](C)O4)O3)O2)[C@H](C)C[C@@H]1C.[Br-]    1.7

Query molecule follows.
// recorded selectivity ratio for CC[C@@H](C(=O)[C@@H](C)[C@@H](O)[C@H](C)[C@@H]1O[C@@H]([C@@H](CC)C(=O)OCCCC[P+](c2ccc(OC)cc2)(c2ccc(OC)cc2)c2ccc(OC)cc2)CC[C@@H]1C)[C@H]1O[C@]2(C=C[C@@H](O)[C@]3(CC[C@@](C)([C@H]4CC[C@](O)(CC)[C@H](C)O4)O3)O2)[C@H](C)C[C@@H]1C.[Br-] : 1.5

* * *

Experiment: Selectivity index, ratio of IC50 for cytotoxicity against human HaCaT cells to IC50 for cytotoxicity against human SW620 cells
Format: toxicity, cell-based
Conditions: HaCaT cells versus SW620 cells, read-out: Ratio IC50
Recorded selectivity ratio split into classes label 0: < 0.9; label 1: ≥ 0.9 and < 2; label 2: ≥ 2

// below: answered molecules
CCCC[P+](CCCC)(CCCC)CCCCOC(=O)[C@H](CC)[C@H]1CC[C@H](C)[C@H]([C@@H](C)[C@H](O)[C@H](C)C(=O)[C@H](CC)[C@H]2O[C@]3(C=C[C@@H](O)[C@]4(CC[C@@](C)([C@H]5CC[C@](O)(CC)[C@H](C)O5)O4)O3)[C@H](C)C[C@@H]2C)O1.[Br-]    label 1
CC[C@@H](C(=O)[C@@H](C)[C@@H](O)[C@H](C)[C@@H]1O[C@@H]([C@@H](CC)C(=O)OCCCCCC[P+](c2ccccc2)(c2ccccc2)c2ccccc2)CC[C@@H]1C)[C@H]1O[C@]2(C=C[C@@H](O)[C@]3(CC[C@@](C)([C@H]4CC[C@](O)(CC)[C@H](C)O4)O3)O2)[C@H](C)C[C@@H]1C.[Br-]    label 0
CC[C@@H](C(=O)[C@@H](C)[C@@H](O)[C@H](C)[C@@H]1O[C@@H]([C@@H](CC)C(=O)OCCCCCC[P+](c2ccccc2)(c2ccccc2)c2ccc(N(C)C)cc2)CC[C@@H]1C)[C@H]1O[C@]2(C=C[C@@H](O)[C@]3(CC[C@@](C)([C@H]4CC[C@](O)(CC)[C@H](C)O4)O3)O2)[C@H](C)C[C@@H]1C.[Br-]    label 1
CC[C@@H](C(=O)[C@@H](C)[C@@H](O)[C@H](C)[C@@H]1O[C@@H]([C@@H](CC)C(=O)OCCCCCC[P+](c2ccc(C)cc2)(c2ccc(C)cc2)c2ccc(C)cc2)CC[C@@H]1C)[C@H]1O[C@]2(C=C[C@@H](O)[C@]3(CC[C@@](C)([C@H]4CC[C@](O)(CC)[C@H](C)O4)O3)O2)[C@H](C)C[C@@H]1C.[Br-]    label 1
CC[C@@H](C(=O)[C@@H](C)[C@@H](O)[C@H](C)[C@@H]1O[C@@H]([C@@H](CC)C(=O)O)CC[C@@H]1C)[C@H]1O[C@]2(C=C[C@@H](O)[C@]3(CC[C@@](C)([C@H]4CC[C@](O)(CC)[C@H](C)O4)O3)O2)[C@H](C)C[C@@H]1C    label 0

Assign a bin to CC[C@@H](C(=O)[C@@H](C)[C@@H](O)[C@H](C)[C@@H]1O[C@@H]([C@@H](CC)C(=O)OCCCCCC[P+](c2ccc(OC)cc2)(c2ccc(OC)cc2)c2ccc(OC)cc2)CC[C@@H]1C)[C@H]1O[C@]2(C=C[C@@H](O)[C@]3(CC[C@@](C)([C@H]4CC[C@](O)(CC)[C@H](C)O4)O3)O2)[C@H](C)C[C@@H]1C.[Br-]
label 0

Assign a bin to CC[C@@H](C(=O)[C@@H](C)[C@@H](O)[C@H](C)[C@@H]1O[C@@H]([C@@H](CC)C(=O)OCCCC[P+](c2ccccc2)(c2ccccc2)c2ccccc2)CC[C@@H]1C)[C@H]1O[C@]2(C=C[C@@H](O)[C@]3(CC[C@@](C)([C@H]4CC[C@](O)(CC)[C@H](C)O4)O3)O2)[C@H](C)C[C@@H]1C.[Br-]
label 2

Assign a bin to CC[C@@H](C(=O)[C@@H](C)[C@@H](O)[C@H](C)[C@@H]1O[C@@H]([C@@H](CC)C(=O)OCCCC[P+](c2ccccc2)(c2ccccc2)c2ccc(N(C)C)cc2)CC[C@@H]1C)[C@H]1O[C@]2(C=C[C@@H](O)[C@]3(CC[C@@](C)([C@H]4CC[C@](O)(CC)[C@H](C)O4)O3)O2)[C@H](C)C[C@@H]1C.[Br-]
label 2
